MEASURED_ON: T1, human LAG-3 ECD (antigen protein of the affinity test) (human, UniProt P18627 23-450)
T1 sequence: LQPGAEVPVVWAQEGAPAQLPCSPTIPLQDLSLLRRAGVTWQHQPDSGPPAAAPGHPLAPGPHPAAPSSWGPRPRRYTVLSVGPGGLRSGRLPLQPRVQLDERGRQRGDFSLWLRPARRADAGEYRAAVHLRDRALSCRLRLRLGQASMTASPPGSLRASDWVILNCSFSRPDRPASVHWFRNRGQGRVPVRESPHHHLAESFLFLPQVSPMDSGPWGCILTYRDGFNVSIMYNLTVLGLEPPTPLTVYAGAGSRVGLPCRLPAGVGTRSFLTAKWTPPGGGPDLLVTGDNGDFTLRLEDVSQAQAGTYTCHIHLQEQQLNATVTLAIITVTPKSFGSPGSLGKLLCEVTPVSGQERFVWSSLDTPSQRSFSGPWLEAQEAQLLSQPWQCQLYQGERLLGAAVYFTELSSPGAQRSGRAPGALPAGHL
EXPERIMENTAL_DETAILS: SPR, CM5 chip, antibody captured by anti-human Fc IgG, antigen in flow, 1:1 fit
Below, each entry is listed alongside its reported kon.
Provide the reading as a plain figure in M⁻¹ s⁻¹.

# annotated cases, reported kon shown
- BINDER: "405B8H3-1 humanized antibody (antibody, V domains shown) VH: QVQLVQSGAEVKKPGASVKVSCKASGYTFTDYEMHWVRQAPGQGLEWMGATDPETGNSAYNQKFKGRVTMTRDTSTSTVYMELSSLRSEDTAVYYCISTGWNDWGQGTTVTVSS VL: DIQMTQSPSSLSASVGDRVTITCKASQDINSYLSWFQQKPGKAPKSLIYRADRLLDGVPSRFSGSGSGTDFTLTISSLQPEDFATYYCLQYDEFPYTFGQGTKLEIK"
  kon [M⁻¹ s⁻¹]: 100000
- BINDER: "405B8H3 mouse-human chimeric antibody (antibody, V domains shown, also called mAb103-405B8H3) VH: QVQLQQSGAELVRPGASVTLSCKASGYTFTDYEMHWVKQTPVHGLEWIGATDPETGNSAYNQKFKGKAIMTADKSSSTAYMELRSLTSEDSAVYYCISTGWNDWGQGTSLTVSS VL: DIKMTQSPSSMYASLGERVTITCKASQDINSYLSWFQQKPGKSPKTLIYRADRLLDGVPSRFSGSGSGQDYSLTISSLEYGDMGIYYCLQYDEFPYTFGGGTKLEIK"
  kon [M⁻¹ s⁻¹]: 64000
- BINDER: "556F6B8-3 humanized antibody (antibody, V domains shown) VH: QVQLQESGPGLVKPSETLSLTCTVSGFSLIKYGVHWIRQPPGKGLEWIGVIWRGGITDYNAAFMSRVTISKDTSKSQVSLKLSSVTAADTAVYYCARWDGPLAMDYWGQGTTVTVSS VL: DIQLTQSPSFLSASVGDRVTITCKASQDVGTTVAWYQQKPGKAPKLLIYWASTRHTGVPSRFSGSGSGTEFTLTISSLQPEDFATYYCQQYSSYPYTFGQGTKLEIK"
  kon [M⁻¹ s⁻¹]: 141000

# lookup: kon of 556F6B8-7 humanized antibody (antibody, V domains shown) VH: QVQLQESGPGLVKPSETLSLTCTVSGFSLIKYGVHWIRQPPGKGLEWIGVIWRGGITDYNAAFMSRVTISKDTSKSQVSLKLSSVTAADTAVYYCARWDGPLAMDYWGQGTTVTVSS VL: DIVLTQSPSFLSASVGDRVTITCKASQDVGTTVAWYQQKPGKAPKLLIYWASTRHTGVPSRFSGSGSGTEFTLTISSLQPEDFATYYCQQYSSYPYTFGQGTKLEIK
139000

How about this binder: 405B8H3-7 humanized antibody (antibody, V domains shown) VH: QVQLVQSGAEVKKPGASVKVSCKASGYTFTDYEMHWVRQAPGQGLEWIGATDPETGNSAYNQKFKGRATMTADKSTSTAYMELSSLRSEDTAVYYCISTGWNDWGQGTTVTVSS VL: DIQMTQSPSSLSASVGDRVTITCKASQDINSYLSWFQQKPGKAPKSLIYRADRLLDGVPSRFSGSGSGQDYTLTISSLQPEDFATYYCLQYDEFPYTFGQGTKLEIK
96400
